Values were extracted from ChEMBL document CHEMBL4340525.

experiment_notes: Stability in swine plasma assessed as parent compound remaining at 20 uM measured after 1 hr by LC-MS/MS analysis
assay_context: Sus scrofa, pig
endpoint: Stability (%)

> print(dat)
                        structure.as.smiles  result.units  value.observed
1  CC(=O)NCCCC[C@H](NC(=O)[C@H](Cc1c[nH]c2ccccc12)NC(=O)C(C)(C)C)C(=O)N[C@@H](CCC(=O)C=[N+]=[N-])C(=O)OC(C)C             %              95
2  CC(=O)NCCCC[C@H](NC(=O)OCC1c2ccccc2-c2ccccc21)C(=O)N[C@@H](CCC(=O)C=[N+]=[N-])C(=O)OC(C)C             %              78
3  CC(=O)NCCCC[C@H](NC(=O)[C@@H]1Cc2ccccc2CN1C(C)=O)C(=O)N[C@@H](CCC(=O)C=[N+]=[N-])C(=O)OC(C)C             %              98
4  CC(=O)NCCCC[C@H](NC(=O)Cc1c[nH]c2ccccc12)C(=O)N[C@@H](CCC(=O)C=[N+]=[N-])C(=O)OC(C)C             %              98
5  CCCCCCCCCCCCCCCC(=O)N[C@@H](CCCCNC(C)=O)C(=O)N[C@@H](CCC(=O)C=[N+]=[N-])C(=O)OC(C)C             %              88
